pIC50: recorded values
- subject of test: PAR2 (HT-29 cells) (Homo sapiens)
- Construct: host or cells: HT-29
- assay info: Ca FLIPR TETRA assay, ANTAGONIST mode, activator 8 μM SLIGKV
- Type: cell-based
- measurement conditions: HT-29 cells; activator 8 μM SLIGKV; Method A: maximal concentration of antagonist 0.1, 1 or 2 μM
# pIC50: negative log10 of molar concentration; output just the value

{"molecule": "CC(C)(C)c1cc(-c2ccc(Cl)cc2)nc2cc(C(=O)N3CCN(c4cccc(C(=O)O)n4)C(=O)C3(C)C)oc12 [Example I-460]", "pIC50": 7.97}
{"molecule": "CC(C)(C)c1cc(-c2ccc(Cl)c(F)c2)nc2cc(C(=O)N3CCN(c4cnccn4)C(=O)C3(C)C)oc12 [Example I-360]", "pIC50": 8.62}

Then there is this molecule:
Q: Quick one: pIC50 for CC(C)(C)c1cc(-c2ccc(Cl)c(F)c2)nc2cc(C(=O)N3CCC(C(=O)[C@H]4CC[C@@](C)(C(=O)O)CC4)CC3(C)C)oc12 (stereo partly drawn) [Example I-422] ?
A: 9.70

* * *

pIC50 listing for selected compounds.
- subject of test: PAR2 (HT-29 cells) (Homo sapiens)
- Construct: host or cells: HT-29
- assay info: Ca FLIPR TETRA assay, ANTAGONIST mode, activator 3.1 U/mL trypsin
- Assay type: cell-based
- measurement conditions: HT-29 cells, activator 3.1 U/mL trypsin; maximal antagonist concentration per Method (A: 0.1, 1 or 2 μM; B: 50 μM)
pIC50 (log units): -log10 of the concentration in mol/L.

The following compounds have reported results that may help.
{"compound": "Cc1cc(N2CCN(C(=O)c3cc4nc(-c5ccc(Cl)cc5)cc(C(C)(C)C)c4o3)C(C)(C)C2=O)[nH]n1 [Example I-285]", "pIC50": 7.63}
{"compound": "Cc1cc(C(=O)N2CCN(C(=O)c3cc4nc(-c5ccc(F)cc5)cc(C(C)C)c4o3)C(C)(C)C2)on1 [Example I-138]", "pIC50": 8.66}
{"compound": "CC1(c2cc(-c3ccc(F)cc3)nc3cc(C(=O)N4CCN(C(=O)C(C)(O)C(F)(F)F)CC4(C)C)oc23)CC1 (stereo not shown) [Example I-39]", "pIC50": 7.70}

Now for a further compound.
Q: Record request: pIC50 value, item Cc1nccnc1N1CCN(C(=O)c2cc3nc(-c4ccc(Cl)cc4)cc(C(C)(C)C)c3o2)C(C)(C)C1 [Example I-266]
A: 7.48

* * *

Reported IC50 values are given for each entry in this list.
- subject of test: PAR2 (HT-29 cells) (Homo sapiens, UniProt P55085)
- Construct: host or cells: HT-29
- Sequence (P55085 26-397): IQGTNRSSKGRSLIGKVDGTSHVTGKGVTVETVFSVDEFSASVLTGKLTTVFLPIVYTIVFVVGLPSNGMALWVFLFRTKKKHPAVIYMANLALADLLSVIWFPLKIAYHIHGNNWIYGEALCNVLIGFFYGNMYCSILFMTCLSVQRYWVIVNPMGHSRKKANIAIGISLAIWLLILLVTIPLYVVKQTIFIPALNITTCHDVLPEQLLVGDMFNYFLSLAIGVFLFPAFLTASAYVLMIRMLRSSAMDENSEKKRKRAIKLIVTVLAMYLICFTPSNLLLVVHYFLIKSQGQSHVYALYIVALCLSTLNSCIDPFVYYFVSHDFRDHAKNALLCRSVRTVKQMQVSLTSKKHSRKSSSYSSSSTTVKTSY
- assay info: Ca FLIPR TETRA assay, ANTAGONIST mode, activator 3.1 U/mL trypsin
- Format: cell-based
- measurement conditions: HT-29 cells; activator 3.1 U/mL trypsin; Method A: maximal concentration of antagonist 0.1, 1 or 2 μM
Answer with the number, then the unit.

Below, 2 molecules whose answers are already recorded.
{"entry smiles": "CC(C)(C)c1cc(N2CCC[C@H]2C(F)(F)F)nc2cc(C(=O)N3CCN(C(=O)[C@H]4C[C@](C)(O)C4)CC3(C)C)oc12", "IC50": "75 nM"}
{"entry smiles": "CC(C)(C)c1cc(-c2ccc(Cl)c(F)c2)nc2cc(C(=O)N3CCN(c4cccc(-c5nnn[nH]5)n4)CC3(C)C)oc12", "IC50": "0.2 nM"}

Consider the additional molecule presented here.
Q: Request - read-out IC50 | tested on PAR2 (HT-29 cells) (Homo sapiens, UniProt P55085) | molecule `CC1(C)CCC(c2cc(C(C)(C)C)c3oc(C(=O)N4CCN(c5cccc(C(=O)O)n5)CC4(C)C)cc3n2)CC1`
A: 1.9 nM

Measured values drawn from patent US20180057505A1 for this set.
